experiment_description: Phage ELISA of phage binding to hair
Design: species or system human
setup_conditions: phage-displayed peptide, 1×10^11 pfu; A450; relative to HP2-TonB-Gray3 = 100
Listed next: entries and their corresponding ELISA (%) relative to the activity of HP2-TonB-Gray3.
outcome_measure: ELISA (%) relative to the activity of HP2-TonB-Gray3

| molecule | readout_value |
| --- | --- |
| MEA4-(EAAAKLL)3-IB5A: hair-binding domain, SEQ ID NO: 94 (peptide) PSHINKTNPHQGNHHSEKTQRQGPEAAAKLLEAAAKLLEAAAKLLPATPPELLHGAPRSGS | 20% |
| HP2-TonB-HP2: hair-binding domain, SEQ ID NO: 91 (peptide) PSAQSQLPDKHSGLHERAPQRYGPEPEPEPEPIPEPPKEAPVVIEKPKPKPKPKPKPPAAQSQLPDKHSGLHERAPQRYGS | 55% |
| Gray3-(EAAAKLL)4-HB1: hair-binding domain, SEQ ID NO: 100 (peptide) PSHDHKNQKETHQRHAAGPEAAAKLLEAAAKLLEAAAKLLEAAAKLLPATPPTNVLMLATKGS | 1% |
| HP2-TonB-Gray3: hair-binding domain, SEQ ID NO: 85, also found in peptide HC353 (peptide) PSAQSQLPDKHSGLHERAPQRYGPEPEPEPEPIPEPPKEAPVVIEKPKPKPKPKPKPPAHDHKNQKETHQRHAAGS | 100% |
| KF11-[(KP)6GG]2-Gray4A: hair-binding domain, SEQ ID NO: 97 (peptide) PSNTSQLSTGPKPKPKPKPKPKPGGKPKPKPKPKPKPGGPAHNHMQERYTAPQHSPSVNGLGS | 1% |
